Value source: patent US9321790B2

Catalogue of pIC50 readings, one per entry.
biological target: UniProtKB P42336; assay: Human PI3Kα activity test (luciferin/luciferase ATP consumption, KinaseGlo); assay type: biochemical; settings: PI3Kα (p110α/p85α), 50 μM PIP2, 2 μM ATP, 90 minutes; read-out: IC50 Human PI3Kα
Remember the convention: pIC50 equals -log10 of concentration in molar.

Worked examples follow.
compound	reading
O=c1cc(N2C[C@@H]3C[C@H]2CO3)nc2n1CC[C@@H](C(F)(F)F)N2CCC1CCOCC1 [Compound 92]	6.35
O=c1cc(N2C[C@@H]3C[C@H]2CO3)nc2n1CC[C@@H](C(F)(F)F)N2CC1CCOCC1 [Compound 93]	6.11
COc1ccc(CCN2c3nc(N4CC5CCC(C4)O5)cc(=O)n3C[C@@]2(C)C(F)(F)F)cc1 [Compound 76]	6.02
Cc1n[nH]c(C)c1CCN1c2nc(N3C[C@@H]4C[C@H]3CO4)cc(=O)n2CC[C@H]1C(F)(F)F [Compound 27]	5.82
Cc1cc(C(=O)CN2c3nc(N4C[C@@H]5C[C@H]4CO5)cc(=O)n3CC[C@H]2C(F)(F)F)cnc1N [Compound 31]	5.20

Name the recorded pIC50 for CC(=O)N1CCC(CCN2c3nc(N4C[C@@H]5C[C@H]4CO5)cc(=O)n3CC[C@H]2C(F)(F)F)CC1 [Compound 89] .
5.55

Name the recorded pIC50 for O=C(CN1c2nc(N3CC4CCC(C3)O4)cc(=O)n2CC[C@H]1C(F)(F)F)c1ccccc1 [Compound 73] .
5.60

Name the recorded pIC50 for CCNC(=O)Nc1ccc(CCN2c3nc(N4C[C@@H]5C[C@H]4CO5)cc(=O)n3C[C@@]2(C)C(F)(F)F)cc1 [Compound 24] .
5.61

----------
Catalogue of IC50 readings, one per entry.
molecular target: human PI3Kα (Homo sapiens (Human)); assay: Human PI3Kα activity test (luciferin/luciferase ATP consumption, KinaseGlo); assay type: biochemical; details: PI3Kα (p110α/p85α), 50 μM PIP2, 2 μM ATP, 90 minutes; read-out: IC50 Human PI3Kα
Sequence (P42336 whole entry): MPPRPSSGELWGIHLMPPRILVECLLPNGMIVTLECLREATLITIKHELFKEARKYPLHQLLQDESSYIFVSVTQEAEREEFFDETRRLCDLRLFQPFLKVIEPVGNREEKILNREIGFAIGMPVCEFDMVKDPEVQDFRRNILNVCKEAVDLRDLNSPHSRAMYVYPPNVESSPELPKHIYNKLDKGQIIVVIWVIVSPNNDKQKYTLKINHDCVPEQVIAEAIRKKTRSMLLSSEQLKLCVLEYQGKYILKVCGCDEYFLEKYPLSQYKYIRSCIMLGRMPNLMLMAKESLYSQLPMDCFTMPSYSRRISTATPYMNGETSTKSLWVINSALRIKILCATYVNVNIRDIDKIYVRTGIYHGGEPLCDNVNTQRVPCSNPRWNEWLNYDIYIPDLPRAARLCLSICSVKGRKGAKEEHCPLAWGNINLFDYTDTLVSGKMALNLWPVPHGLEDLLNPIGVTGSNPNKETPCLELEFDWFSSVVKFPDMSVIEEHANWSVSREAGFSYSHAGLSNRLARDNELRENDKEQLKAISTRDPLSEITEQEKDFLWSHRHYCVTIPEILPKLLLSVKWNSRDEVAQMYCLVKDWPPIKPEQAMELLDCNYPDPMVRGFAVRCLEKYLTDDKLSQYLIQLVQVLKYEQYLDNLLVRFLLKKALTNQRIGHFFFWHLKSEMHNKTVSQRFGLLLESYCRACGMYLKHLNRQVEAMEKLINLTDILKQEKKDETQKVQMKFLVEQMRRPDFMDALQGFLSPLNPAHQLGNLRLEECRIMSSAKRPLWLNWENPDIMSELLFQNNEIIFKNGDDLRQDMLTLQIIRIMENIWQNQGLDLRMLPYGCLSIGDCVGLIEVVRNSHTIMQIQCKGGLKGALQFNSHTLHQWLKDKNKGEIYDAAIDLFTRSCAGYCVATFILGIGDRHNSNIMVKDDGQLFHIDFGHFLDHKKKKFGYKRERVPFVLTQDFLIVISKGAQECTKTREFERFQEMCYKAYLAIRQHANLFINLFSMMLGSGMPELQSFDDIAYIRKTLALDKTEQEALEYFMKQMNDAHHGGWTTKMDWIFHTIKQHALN
Sequence (P27986 whole entry partner): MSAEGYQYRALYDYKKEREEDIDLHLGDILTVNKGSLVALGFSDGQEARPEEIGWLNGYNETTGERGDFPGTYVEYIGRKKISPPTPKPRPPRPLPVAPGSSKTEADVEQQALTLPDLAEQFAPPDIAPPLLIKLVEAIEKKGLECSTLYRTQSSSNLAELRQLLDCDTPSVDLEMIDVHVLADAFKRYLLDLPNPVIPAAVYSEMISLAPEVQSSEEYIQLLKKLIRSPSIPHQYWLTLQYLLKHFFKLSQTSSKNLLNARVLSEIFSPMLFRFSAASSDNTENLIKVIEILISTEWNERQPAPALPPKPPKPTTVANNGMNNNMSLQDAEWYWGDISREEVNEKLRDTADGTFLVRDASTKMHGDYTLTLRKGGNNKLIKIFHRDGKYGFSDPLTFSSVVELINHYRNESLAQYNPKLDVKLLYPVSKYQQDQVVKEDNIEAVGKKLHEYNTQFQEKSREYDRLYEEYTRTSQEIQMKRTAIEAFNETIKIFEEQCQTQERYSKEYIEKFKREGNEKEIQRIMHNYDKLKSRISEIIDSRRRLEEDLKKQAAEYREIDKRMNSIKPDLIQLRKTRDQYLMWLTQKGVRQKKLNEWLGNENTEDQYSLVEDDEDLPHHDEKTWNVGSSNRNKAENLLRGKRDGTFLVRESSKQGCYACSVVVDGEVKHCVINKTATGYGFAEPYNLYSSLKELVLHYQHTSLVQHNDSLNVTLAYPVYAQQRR

compound	tested.on	IC50
CC(C)(C)C(=O)CN1c2nc(N3C[C@@H]4C[C@H]3CO4)cc(=O)n2C[C@@]1(C)C(F)(F)F	human PI3Kα (Homo sapiens (Human))	> 10 µM

Name the recorded IC50 for COc1ccc(C(=O)CN2c3nc(N4C[C@@H]5C[C@H]4CO5)cc(=O)n3CC[C@H]2C(F)(F)F)cn1 .
> 10 µM

Name the recorded IC50 for Cc1nc(CN2c3nc(N4C[C@@H]5C[C@H]4CO5)cc(=O)n3CC[C@H]2C(F)(F)F)no1 .
> 10 µM

Name the recorded IC50 for CC(C)C(=O)CN1c2nc(N3C[C@@H]4C[C@H]3CO4)cc(=O)n2CC[C@H]1C(F)(F)F .
> 10 µM

Name the recorded IC50 for COC(=O)Nc1ccc(C(=O)CN2c3nc(N4C[C@@H]5C[C@H]4CO5)cc(=O)n3CC[C@H]2C(F)(F)F)cn1 .
6.4 µM

Name the recorded IC50 for Cc1n[nH]c(C)c1CCN1c2nc(N3C[C@@H]4C[C@H]3CO4)cc(=O)n2C[C@@]1(C)C(F)(F)F .
2.26 µM

Name the recorded IC50 for O=c1cc(N2C[C@@H]3C[C@H]2CO3)nc2n1CC[C@@H](C(F)(F)F)N2CC(O)(C(F)(F)F)C(F)(F)F .
8.5 µM

Name the recorded IC50 for Cn1cc(CN2c3nc(N4C[C@@H]5C[C@H]4CO5)cc(=O)n3CC[C@H]2C(F)(F)F)c(C(F)(F)F)n1 .
> 10 µM

Name the recorded IC50 for O=C(CN1c2nc(N3C[C@@H]4C[C@H]3CO4)cc(=O)n2CC[C@H]1C(F)(F)F)c1ccc(C(F)(F)F)nc1 .
> 10 µM
